Each recorded value in this set is attributed to the supplement of paper PMC8728848.

Target: Fuc(a1-2)[GalNAc(a1-3)]Gal(b1-3)GlcNAc(b1-2)Man(a1-3)[Fuc(a1-2)[GalNAc(a1-3)]Gal(b1-3)GlcNAc(b1-2)Man(a1-6)]Man(b1-4)GlcNAc(b1-4)[Fuc(a1-6)]GlcNAc
Assay: glycan array binding signal (z-score within array); higher = stronger binding
Details: glycan notation: IUPAC condensed, linker removed
The entries come from a sample that favours the strongest signals as a whole.

binder	glycan array binding signal (z-score)
DCL-1 (Homo sapiens), Q8IX05 (protein) MLRAALPALLLPLLGLAAAAVADCPSSTWIQFQDSCYIFLQEAIKVESIEDVRNQCTDHGADMISIHNEEENAFILDTLKKQWKGPDDILLGMFYDTDDASFKWFDNSNMTFDKWTDQDDDEDLVDTCAFLHIKTGEWKKGNCEVSSVEGTLCKTAIPYKRKYLSDNHILISALVIASTVILTVLGAIIWFLYKKHSDSRFTTVFSTAPQSPYNEDCVLVVGEENEYPVQFD	-0.151
NKR-PIC (Mus musculus) (protein) GTGQKPSREKCCVFIQENLNKTTDCSVNLECPQDWLLHRDKCFHVSQVSNTWEEGQADCGRKGATLLLIQDQEELRFLLDSIKEKYNSFWIGLRFTLPDMNWKWINGTTFNSDVLKITGVTENGSCASILGDKVTPESCASDNRWICQKELNHETPSNDSGT	-0.375
